Listing: IL-2, % of BMS, at 3.703703704 ug/mL of selected binders
Biological target: T1, human LAG3 expressed on cells (human, UniProt P18627 23-525)
T1 sequence (looked up): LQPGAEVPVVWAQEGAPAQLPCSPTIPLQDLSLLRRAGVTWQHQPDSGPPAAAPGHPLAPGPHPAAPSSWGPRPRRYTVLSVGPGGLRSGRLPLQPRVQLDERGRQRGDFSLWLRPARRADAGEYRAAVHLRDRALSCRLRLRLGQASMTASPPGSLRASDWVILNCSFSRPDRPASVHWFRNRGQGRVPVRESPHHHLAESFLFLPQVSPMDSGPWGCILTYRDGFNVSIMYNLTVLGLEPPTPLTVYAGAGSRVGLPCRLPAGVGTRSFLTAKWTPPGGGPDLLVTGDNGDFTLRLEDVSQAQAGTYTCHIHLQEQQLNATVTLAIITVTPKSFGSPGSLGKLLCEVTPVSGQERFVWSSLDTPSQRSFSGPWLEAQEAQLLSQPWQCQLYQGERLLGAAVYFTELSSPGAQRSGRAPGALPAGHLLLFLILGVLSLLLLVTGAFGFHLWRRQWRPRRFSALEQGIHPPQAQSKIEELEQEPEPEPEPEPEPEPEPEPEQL
Assay: cell-based or functional assay
Answer with a number only, understood to be in %.

Sample answers from the record:
{"binder": "combination of sdAbs 25 and 27 (other) VHH 1: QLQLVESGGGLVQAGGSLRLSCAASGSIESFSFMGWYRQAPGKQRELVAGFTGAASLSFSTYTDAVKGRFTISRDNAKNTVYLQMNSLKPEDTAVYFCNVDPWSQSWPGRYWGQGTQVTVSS VHH 2: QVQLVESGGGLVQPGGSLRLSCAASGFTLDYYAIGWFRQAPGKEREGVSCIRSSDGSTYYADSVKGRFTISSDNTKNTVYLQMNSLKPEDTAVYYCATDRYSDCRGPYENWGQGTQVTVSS", "IL-2, % of BMS, at 3.703703704 ug/mL, %": 62.3}
{"binder": "sdAb No. 27 (VHH, Fc of the tested form not described; also called sdAb 27; not shown: Fc part implied by anti-human Fc capture and anti-human IgG Fc detection) VHH: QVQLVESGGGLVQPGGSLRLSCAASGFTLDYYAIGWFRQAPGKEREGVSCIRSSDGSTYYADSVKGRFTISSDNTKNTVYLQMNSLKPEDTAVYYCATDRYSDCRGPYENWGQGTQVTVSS", "IL-2, % of BMS, at 3.703703704 ug/mL, %": 43.4}

Consider the record given below.
In: Please give the documented IL-2, % of BMS, at 3.703703704 ug/mL of combination of sdAbs 25 and 2015 (other) VHH 1: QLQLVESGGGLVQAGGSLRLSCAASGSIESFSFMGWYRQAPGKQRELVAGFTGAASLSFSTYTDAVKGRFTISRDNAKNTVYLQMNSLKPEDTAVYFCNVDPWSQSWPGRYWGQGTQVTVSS VHH 2: QLQLVESGGGLAQTGGSLRLSCAAAGFTFDDTATGWFRQAPGKNREGVACISSSDGRIHYIDSAKGRFTISKDNAKKTVYLQMDSLKPEDTAVYYCAAARKGSTDCQGAIWGSWGQGTQVIVSS
Out: 43.6
